# EXPERIMENTAL_TARGET: RNA-protein complexes of GST-hnRNP-E1 and 25-nt hnRNP-E1 mRNA cis-element (Homo sapiens, UniProt Q15365, A205V)
# Construct: made in house; host or cells: Escherichia coli BL21
# Sequence (Q15365 whole entry A205V, one chain of several): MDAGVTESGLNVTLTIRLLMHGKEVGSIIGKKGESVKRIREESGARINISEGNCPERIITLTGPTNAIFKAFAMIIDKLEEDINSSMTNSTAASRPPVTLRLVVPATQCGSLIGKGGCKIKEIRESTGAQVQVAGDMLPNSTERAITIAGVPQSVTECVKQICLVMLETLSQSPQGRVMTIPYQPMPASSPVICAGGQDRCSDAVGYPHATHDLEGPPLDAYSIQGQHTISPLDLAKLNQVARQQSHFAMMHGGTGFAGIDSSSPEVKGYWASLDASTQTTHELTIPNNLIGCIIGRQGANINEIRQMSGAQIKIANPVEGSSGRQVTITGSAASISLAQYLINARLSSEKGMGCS
# METHOD: Gel-shift assay: effect of thiols, iron and deferoxamine on RNA-protein complex formation
# Format: binding
# PARTICULARS: 100-μM thiol
VALUE_KIND: RNA-protein signals relative to L-homocysteine

compound="CSCC[C@H](N)C(=O)O [methionine]" result="no detectable signals"
compound="N[C@@H](CCC(=O)N[C@@H](CS)C(=O)NCC(=O)O)C(=O)O [glutathione]" result="no detectable signals"
